B1: Ankyrin-3, residues 4094 to 4171; numbered along this chain, Q12955 (parent)
chain: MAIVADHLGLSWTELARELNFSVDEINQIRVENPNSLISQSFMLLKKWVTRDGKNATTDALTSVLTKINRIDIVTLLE

# Variants of: B1
# Test: abundance fitness (aPCA) (normalised: wild type 0, dead -1); higher = more abundant; growth selection in yeast, the domain comes from the species named
# Run Parameters: Homo sapiens
Assay Metric: abundance fitness

Data request: Entry M43T has what abundance fitness?
Data returned: 0.033

Data request: Entry D6E has what abundance fitness?
Data returned: 0.096

Data request: Entry L10A has what abundance fitness?
Data returned: -0.064

Data request: Entry P34C has what abundance fitness?
Data returned: -0.7

Data request: Entry G9W has what abundance fitness?
Data returned: -0.786

Data request: Entry T66S has what abundance fitness?
Data returned: -0.173

Data request: Entry S11C has what abundance fitness?
Data returned: -0.342

Data request: Entry T75Q has what abundance fitness?
Data returned: 0.026

Data request: Entry P34R has what abundance fitness?
Data returned: -0.26

Data request: Entry I29P has what abundance fitness?
Data returned: -0.808

Data request: Entry I68P has what abundance fitness?
Data returned: -0.37

Data request: Entry R51D has what abundance fitness?
Data returned: -0.637

Data request: Entry S39R has what abundance fitness?
Data returned: 0.001

Data request: Entry D24M has what abundance fitness?
Data returned: -0.424

Data request: Entry N69Q has what abundance fitness?
Data returned: -0.061

Data request: Entry F21T has what abundance fitness?
Data returned: -0.869

Data request: Entry E25D has what abundance fitness?
Data returned: 0.03

Data request: Entry A2Y has what abundance fitness?
Data returned: -0.037

Data request: Entry N35H has what abundance fitness?
Data returned: -0.266

Data request: Entry K67R has what abundance fitness?
Data returned: -0.091

Data request: Entry V4A has what abundance fitness?
Data returned: -0.253

Data request: Entry I71S has what abundance fitness?
Data returned: -0.048

Data request: Entry E78T has what abundance fitness?
Data returned: -0.063

Data request: Entry D24Y has what abundance fitness?
Data returned: -0.228

Data request: Entry I68R has what abundance fitness?
Data returned: -0.965

Data request: Entry D72G has what abundance fitness?
Data returned: -0.878

Reference source for all entries: the Human Domainome abundance scans (Beltran et al. 2025)
